Molecular target: High affinity nerve growth factor receptor (Homo sapiens)
Sequence (P04629 whole entry): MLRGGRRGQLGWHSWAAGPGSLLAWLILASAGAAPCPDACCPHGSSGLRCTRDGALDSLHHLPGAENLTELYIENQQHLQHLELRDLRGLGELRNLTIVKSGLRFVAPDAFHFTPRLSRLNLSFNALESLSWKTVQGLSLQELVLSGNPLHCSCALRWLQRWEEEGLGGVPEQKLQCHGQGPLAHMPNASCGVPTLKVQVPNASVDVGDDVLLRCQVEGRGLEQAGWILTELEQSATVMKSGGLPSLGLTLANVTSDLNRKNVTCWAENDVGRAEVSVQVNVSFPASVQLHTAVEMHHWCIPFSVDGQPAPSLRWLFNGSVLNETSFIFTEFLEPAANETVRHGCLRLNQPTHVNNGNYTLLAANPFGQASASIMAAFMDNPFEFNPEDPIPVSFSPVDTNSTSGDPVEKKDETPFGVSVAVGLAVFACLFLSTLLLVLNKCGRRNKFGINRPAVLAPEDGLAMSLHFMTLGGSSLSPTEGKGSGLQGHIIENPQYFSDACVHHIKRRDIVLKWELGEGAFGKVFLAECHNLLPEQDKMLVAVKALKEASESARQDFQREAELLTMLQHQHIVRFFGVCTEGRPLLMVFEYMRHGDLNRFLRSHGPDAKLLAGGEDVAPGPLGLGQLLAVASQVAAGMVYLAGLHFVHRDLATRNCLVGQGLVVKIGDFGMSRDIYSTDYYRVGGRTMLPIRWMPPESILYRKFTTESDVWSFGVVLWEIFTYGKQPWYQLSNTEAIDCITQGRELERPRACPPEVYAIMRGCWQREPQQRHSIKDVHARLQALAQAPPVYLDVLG
pIC50: −log10 of the molar value.
Would you mind labelling by pIC50? At or over 6 is 1, under is -1.

N#Cc1ccc2c(c1)cc(C(=O)O)n2CCOc1ccc(OC(F)(F)F)cc1 = 1
O=C(NCc1cccc(-c2nccs2)c1)Nc1ccc(OC(F)(F)F)cc1 = -1
CCOc1cccc(-c2nccc3c2cc(C(=O)O)n3CCOc2ccc(Cl)cc2)c1 = 1
CCOc1cccc(-c2nccc3c2cc(C(=O)O)n3CCOc2ccccc2)c1 = -1
O=C(O)c1cc2cnccc2n1CCOc1ccc(OC(F)(F)F)cc1 = -1
CN1CCN(c2ccc(Nc3ncnc4ccc(NCc5cccc(Cl)c5)nc34)cc2)CC1 = -1
CCOc1cccc(-c2nccc3c2cc(C(=O)O)n3CCOc2ccc(OC(F)(F)F)cc2)c1 = 1
O=C(O)c1cc2cc(-c3cc[nH]n3)ccc2n1CCOc1ccc(OC(F)(F)F)cc1 = 1

Continue with the next compound.
Is pIC50 for CC(C)N(Cc1cccc(-c2nccs2)c1)C(=O)Nc1ccc(OC(F)(F)F)cc1 at or above 6?
1

Values compiled from ChEMBL document CHEMBL3297676.
